Data provenance: paper PMC2875737

- test.summary: Plasma protein binding by equilibrium dialysis
- study.conditions: human
For each record, write down the corresponding fraction unbound at 6 h, 10 μM.

Task: Would you kindly share the measured fraction unbound at 6 h, 10 μM for CN(Cc1cnc2nc(N)nc(N)c2n1)c1ccc(C(=O)N[C@@H](CCC(=O)O)C(=O)O)cc1 [Methotrexate] ?
Result: 0.493

Task: Would you kindly share the measured fraction unbound at 6 h, 10 μM for Cn1c(=O)c2c(ncn2C)n(C)c1=O ?
Result: 0.593

Task: Would you kindly share the measured fraction unbound at 6 h, 10 μM for Cc1cc(NCC(=O)Nc2ccccc2)c2ccccc2n1 ?
Result: 0.212

---

For each record, write down the corresponding logD hydrocarbon water.
- test.summary: Distribution coefficient Log D in cyclohexane/PBS pH 7.4
- Type: physicochemical
- study.conditions: cyclohexane/PBS; PBS pH 7.4; average of three experiments
Provide a numeric answer; units are not to be included.

Task: Would you kindly share the measured logD hydrocarbon water for Cc1cc(NCC(=O)Nc2ccccc2)c2ccccc2n1 [S-4] ?
Result: -1.33

Task: Would you kindly share the measured logD hydrocarbon water for O=C(CCCN1CCC(O)(c2ccc(Cl)cc2)CC1)c1ccc(F)cc1 [Haloperidol] ?
Result: 0.52

---

- test.summary: Chemical stability in PBS pH 7.4, simulated gastric fluid and simulated intestinal fluid
- Type: physicochemical
- study.conditions: phosphate buffered saline, pH 7.4, 100 μM in PBS pH 7.4, 25°C, 24 hours, HPLC
reported.endpoint: remaining at 24 h, 100 μM

Task: Would you kindly share the measured remaining at 24 h, 100 μM for Cc1cc(NCC(=O)Nc2ccccc2)c2ccccc2n1 ?
Result: > 95%

---

- test.summary: Chemical stability in PBS pH 7.4, simulated gastric fluid and simulated intestinal fluid
- Format: physicochemical
- study.conditions: simulated gastric fluid (SGF), 37°C, 2 hours
reported.endpoint: remaining at 2 h, 100 μM

Task: Would you kindly share the measured remaining at 2 h, 100 μM for Cc1cc(NCC(=O)Nc2ccccc2)c2ccccc2n1 [S-4] ?
Result: > 95%

---

- test.summary: Distribution coefficient (Log D) in octanol/PBS pH 7.4
Structures can show the parent of a compound that is named as a salt.
For each record, write down the corresponding logD.
Provide a numeric answer; units are not to be included.

Task: Would you kindly share the measured logD for COCCc1ccc(OCC(O)CNC(C)C)cc1 (centres unmarked) [Metoprolol tartrate] ?
Result: -0.25

Task: Would you kindly share the measured logD for Cc1cc(NCC(=O)Nc2ccccc2)c2ccccc2n1 ?
Result: 0.54

---

- test.summary: Chemical stability in PBS pH 7.4, simulated gastric fluid and simulated intestinal fluid
- Type: physicochemical
- study.conditions: simulated intestinal fluid (SIF), 37°C, 4 hours
reported.endpoint: remaining at 4 h, 100 μM

Task: Would you kindly share the measured remaining at 4 h, 100 μM for Cc1cc(NCC(=O)Nc2ccccc2)c2ccccc2n1 ?
Result: > 95%

---

- test.summary: Parallel artificial membrane permeability assay (PAMPA)
- Type: in vitro ADME
- study.conditions: PBS pH 7.4 (5% DMSO), 16 hours, room temperature, ± SEM, read-out: Log Pe (converted)
reported.endpoint: Papp at 16 h, 250 μM (×10⁻⁶ cm/s)
Give the value, in units of ×10⁻⁶ cm/s, as a plain number.

Task: Would you kindly share the measured Papp at 16 h, 250 μM for Cc1cc(NCC(=O)Nc2ccccc2)c2ccccc2n1 [S-4] ?
Result: 2.95
